Could you please report measured viability at 52 h, 3.3 μM for the items listed next?
assay: in vitro; details: human
Answers are plain numbers, in %.

Reference set, count: 4
COC(=O)C1=C(C)NC2=C(C(=O)c3ccccc32)C1c1cc2c(cc1Br)OCO2 (centres unmarked)	95.7
Cc1cc(C(c2ccc(F)cc2)c2cc(C)c(NC(=O)c3ccccc3)c(C)c2)cc(C)c1NC(=O)c1ccccc1	106
Cc1ccc(C2Nc3ccccc3NC3=C2C(=O)CC(c2ccccc2)C3)s1 (centres unmarked)	97.3
COc1ccc(C(O)(CNCc2ccccc2)c2ccc(Br)cc2)cc1 (centres unmarked)	99

Query compound follows.
Consider the compound CCOc1ccc(C(=O)Nc2ccc3oc(-c4ccccc4Br)nc3c2)cc1 . State its measured viability at 52 h, 3.3 μM.
97.7

###

tested on: HPV16 pseudoviruses; experiment: microbe, parasite or virus in culture; assay type: cell-based; settings: Human papillomavirus 16, HEK-293T, 48 h, read-out: Primary HTS SEAP vs Viability, Table 2, second pair of columns (c4)
Rule: true for activity at 3 µM not less than 30%, false for anything less.

Worked cases, answers included:
Cc1cccc(NC(=O)Nc2ccc(C(C)(C)C)cc2)n1	true
COC(=O)C1=C(C)NC2=C(C(=O)c3ccccc32)C1c1cc2c(cc1Br)OCO2 (stereo not shown)	false
Cc1nc2ccccn2c1C(=O)NC(C)c1ccccc1 (stereo not shown)	false
COc1ccc(C(O)(CNCc2ccccc2)c2ccc(Br)cc2)cc1 (stereo not shown)	true
CC(O)c1cccc(NC(=O)c2cc3n(n2)C(C(F)(F)F)CC(c2ccc(F)cc2)N3)c1 (stereo not shown)	true
Cc1cc(O)n2c(nc3ccccc32)c1C(=O)O	false
COc1cccc(NC(=O)c2ccc(C)c([N+](=O)[O-])c2)c1	true
CN1C(=O)C(c2c[nH]c3ccccc23)(c2c[nH]c3ccccc23)c2ccccc21	true
Cc1ccccc1C(=O)N1CC(C)CC(C)C1 (stereo not shown)	false
O=C1NC(=S)SC1=Cc1ccc(Oc2ccc([N+](=O)[O-])cn2)cc1	false

Reported activity at 3 µM at or above 30%? O=C1NC(=S)SC1=Cc1cc(Br)ccc1OCc1ccccc1Cl
false

Record CCOc1ccc(C(=O)Nc2ccc3oc(-c4ccccc4Br)nc3c2)cc1 ; criterion: activity at 3 µM no lower than 30%. Met?
true

Check this molecule for activity at 3 µM at or above 30%: Cc1ccccc1OCCc1c(C)n[nH]c1C
true

Kindly determine if activity at 3 µM recorded for FC(F)(F)c1cnc2c(c1)nc(S)n2-c1ccc(Cl)cc1 is above or exactly 30%.
false

Dear colleague, could you confirm whether O=S1(=O)C=CC(Nc2cccc(C(F)(F)F)c2)C1 (stereo not shown) has activity at 3 µM at or above 30%?
false

###

Test system: HPV16 pseudoviruses
Experiment: microbe, parasite or virus in culture
Assay type: cell-based
Conditions: Human papillomavirus 16, HEK-293T, 48 h, read-out: Infectivity (SEAP Activity), 3 μM HTS standard concentration, 293T cells, 48 hrs
Description: FIG. 1. High throughout screen (HTS) for identifying inhibitors of HPV infection. Shown is a schematic showing basic steps in the HTS. […] Briefly, HPV16 pseudoviruses containing the SEAP reporter genes are analyzed for their ability to infect as judged by the levels of secreted alkaline phosphatase in the tissue culture supernatant (light grey arrows). Cell viability was assessed in parallel on the same wells (dark grey arrows). […]
Please use Fulfilled for activity at 3 µM under 50% and Not fulfilled for everything else, ties included.

COc1ccc(CCNc2cc(N3CCN(C(=O)c4ccc(Cl)cc4)CC3)ccc2[N+](=O)[O-])cc1OC	Fulfilled
Cc1cc(O)n2c(nc3ccccc32)c1C(=O)O	Fulfilled
CCCCNC(=O)c1cc2nc(-c3ccc(OCC)cc3)cc(C)n2n1	Not fulfilled
O=S(=O)(Nc1nc2ccccc2nc1Nc1ccccc1)c1ccccc1	Fulfilled
CC(=O)Nc1ccccc1NC(=O)c1ccccc1I	Not fulfilled
CN(C)c1cccc(C(=O)NCc2ccc(S(N)(=O)=O)cc2)c1	Fulfilled

Please look at the following molecule next.
Given CC(=NNC(N)=O)C1CC1(C)C(C)(C)C (stereo not drawn) , is recorded activity at 3 µM strictly lower than 50%?
Not fulfilled

###

Provide the recorded viability at 52 h, 3 μM for the entries that follow.
experiment: in vitro; conditions: human, Viability (CelTiter Glow)
Give bare numbers, in %.

Some compounds with known viability at 52 h, 3 μM results, for comparison:
O=C(Nc1sc2c(c1C(=O)NCCc1ccccc1)CCCCC2)c1ccccc1F	109
CCOC(=O)[C@H]1C(=O)c2ccccc2C(=O)/C1=C/c1ccc(CC)cc1	66

Query compound follows.
Annotate the compound CCN1C(=O)c2cccc3c(NC(=O)c4ccc(S(=O)(=O)N(C)C)cc4)ccc1c23 with its measured viability at 52 h, 3 μM.
101

###

Would you mind telling me the reported viability at 52 h, 3 μM of each entry?
test: in vitro; conditions: human, Viability (CelTiter Glow)
Give bare numbers, in %.

Solved entries (count: 3):
O=C(Nc1ccccc1)Nc1nnc(COc2ccc(Cl)cc2)s1	112
Cc1cccc(NC(=O)Nc2ccc(C(C)(C)C)cc2)n1	92.8
CC(c1ccccc1)c1nnc(NC(=O)Nc2ccc(Cl)cc2)s1 (centres unmarked)	97.5

Dear colleague, could you send me viability at 52 h, 3 μM for each of the items below? Thanks.
1. Cc1cccc(C(=O)Nc2cccc(NC(=O)COc3ccccc3Cl)c2)c1
2. COn1c(=O)c(=O)n(OC)c2ccccc21

1: 99.1; 2: 102

###

Exercise: for every item that follows, state its recorded viability at 52 h, 3 μM.
test: in vitro; settings: human, Primary HTS Viability % Average
Numbers only, in %.

COc1ccc(C(O)(CNCc2ccccc2)c2ccc(Br)cc2)cc1 (stereo not drawn)	101
Cc1cccc(NC(=O)Nc2ccc(C(C)(C)C)cc2)n1	92.8

Identify measured viability at 52 h, 3 μM associated with O=C1NC(=S)SC1=Cc1cc(Br)ccc1OCc1ccccc1Cl
87.8

###

test: in vitro; details: human, Viability (CelTiter Glow)
Hi there, I'd appreciate the recorded viability at 52 h, 3 μM for every entry that follows.
Numbers only, in %.

Below, each entry is followed by its recorded viability at 52 h, 3 μM result.
O=C(Nc1ccccc1)Nc1nnc(Cc2ccc(F)cc2)s1	98.4
Cc1ccc2cc(C3CC(c4ccc(Br)cc4)=NN3C(=O)CCC(=O)O)c(=O)[nH]c2c1 (centres unmarked)	105
COC(=O)C1=C(C)NC2=C(C(=O)c3ccccc32)C1c1cc2c(cc1Br)OCO2 (centres unmarked)	130
Cc1nc2ccccc2c(=O)n1N=Cc1c(O)ccc2ccccc12	110

Let me know recorded viability at 52 h, 3 μM for Oc1ccccc1C=NNc1nc2c(Cl)cc(Cl)cc2s1 , thanks.
94.9

###

test system: HPV16 pseudoviruses; experiment: microbe, parasite or virus in culture; type: cell-based; conditions: Human papillomavirus 16, HEK-293T, 48 h, read-out: Primary HTS SEAP vs Viability, Table 2, second pair of columns (c4)
Experimental Endpoint: activity at 3 µM (%)
Give bare numbers, in %.

Illustrative cases are given below, each with its answer.
CCOC(=O)CCc1c(C)nc2c(C)c(-c3ccccc3)nn2c1O	32.6
O=C(N(c1cccc(C(F)(F)F)c1)C1C=CS(=O)(=O)C1)C(F)(F)F (stereo not drawn)	18.1

Answer with reported activity at 3 µM of CCCn1c2ccccc2c2nnc(SC(CC)C(=O)Nc3ccc(Cl)cn3)nc21 (stereo not drawn)
35.4

###

assay: in vitro; settings: human, Viability (CelTiter Glow)
Experimental Endpoint: viability at 52 h, 3 μM
Number first, unit second.

Some solved cases for reference:
O=C1NC(=S)SC1=Cc1ccc(Oc2ccc([N+](=O)[O-])cn2)cc1	132%
O=C(N(c1cccc(C(F)(F)F)c1)C1C=CS(=O)(=O)C1)C(F)(F)F (stereo not drawn)	94.4%
O=C1C(=Cc2cccc(O)c2)SC(=S)N1c1ccc(Cl)cc1	102%
COc1cc(NC(=O)C=Cc2ccc(OC)c(Br)c2)c(OC)cc1Cl	98.5%

Dear colleague, could you please provide viability at 52 h, 3 μM for the compounds listed below?
1. O=C1NN(c2ccc(Cl)c(Cl)c2)C(=O)C1=Cc1ccc(Cl)c([N+](=O)[O-])c1
2. COc1ccccc1CC(N)=NOC(=O)COc1ccc(C)cc1
3. Cc1ccccc1OCCc1c(C)n[nH]c1C
4. O=c1oc2c3c4c(cc2cc1CCO)CCCN4CCC3

1: 108%; 2: 114%; 3: 92.9%; 4: 115%

Indicate the recorded viability at 52 h, 3 μM value for this compound: Cc1nc2cc(-c3cccc(F)c3)nn2c(O)c1C
107%

###

experiment: in vitro; details: human, Viability (CelTiter Glow)
Give viability at 52 h, 3 μM for every item shown.
One number for each entry, in %.

// known answers, use as guide
CC(=NNC(N)=O)C1CC1(C)C(C)(C)C (centres unmarked)	112
O=[N+]([O-])c1cccc(C2Nc3ccc(Cl)cc3C3C=CCC32)c1 (centres unmarked)	75.7

For each listed entry, give its viability at 52 h, 3 μM.
1. CN(C)C=C=C(O)c1ccccc1C(=O)c1ccc(Cl)cc1
2. O=C(CCSc1ccc(C(F)(F)F)cc1)c1ccco1
3. O=C(Nc1ccc(Cl)cc1)Nc1ccc([N+](=O)[O-])cc1Br

106
103
95.2
